Reference source for all entries: patent US11028072B2

Measured melting point by item
Where a name gives a salt, the structure may show the parent alone.

# query: melting point of entry CCc1nc(N)nc(N)c1-c1cn(Cc2ccccc2)nn1 (as salt: hydrochloride) [Compound 3]
255.5 to 256.5 °C

Another: CCc1nc(N)nc(N)c1OCc1cn(-c2ccccc2)nn1 (as salt: hydrochloride) [Compound 13]
212.5 to 213.5 °C

Another: CCc1nc(N)nc(N)c1OCc1csc(-c2ccc(Cl)cc2)n1 (as salt: hydrochloride) [Compound 70]
230 to 232 °C

Another: CCc1nc(N)nc(N)c1OCc1csc(-c2cccc(C(=O)O)c2)n1.Cl [Compound 66]
217.5 to 219 °C

###

- Measured Target: quadruple mutant N51I + C59R + S108N + I164L (QM) pfDHFR (Plasmodium falciparum, UniProt P13922, I164L/N51I)
- Sequence (P13922 whole entry N51I/I164L): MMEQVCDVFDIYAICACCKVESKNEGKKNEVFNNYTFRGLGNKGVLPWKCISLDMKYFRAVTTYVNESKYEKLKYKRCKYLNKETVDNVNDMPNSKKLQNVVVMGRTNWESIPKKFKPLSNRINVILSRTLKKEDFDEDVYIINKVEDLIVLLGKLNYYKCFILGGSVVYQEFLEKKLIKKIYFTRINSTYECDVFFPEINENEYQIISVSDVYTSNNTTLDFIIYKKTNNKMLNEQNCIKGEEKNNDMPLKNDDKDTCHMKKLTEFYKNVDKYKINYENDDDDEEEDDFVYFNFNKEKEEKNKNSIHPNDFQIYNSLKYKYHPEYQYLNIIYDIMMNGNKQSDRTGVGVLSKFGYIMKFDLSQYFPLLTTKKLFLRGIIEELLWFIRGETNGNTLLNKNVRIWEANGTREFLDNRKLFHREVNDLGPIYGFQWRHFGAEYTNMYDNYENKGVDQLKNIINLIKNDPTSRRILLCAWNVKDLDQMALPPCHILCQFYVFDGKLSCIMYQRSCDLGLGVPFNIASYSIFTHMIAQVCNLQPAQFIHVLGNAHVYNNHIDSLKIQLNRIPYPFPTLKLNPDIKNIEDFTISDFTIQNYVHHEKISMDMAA
- Method Summary: Inhibition of quadruple mutant pfDHFR (Ki)
- Assay type: biochemical
pKi: −log10 of the molar value.
Label satisfied for high-side pKi (at or above 8) and not satisfied for low-side pKi (below it).

{"Compound": "CCc1nc(N)nc(N)c1OCCCc1cc(-c2cccc(C(F)(F)F)c2)no1", "Label Value": "satisfied"}
{"Compound": "CCc1nc(N)nc(N)c1OCCCc1cc(-c2cccc(C(=O)O)c2)no1.Cl [Compound 49, Hydrochloride]", "Label Value": "satisfied"}
{"Compound": "CCc1nc(N)nc(N)c1-c1cn(Cc2ccc(C(=O)OC)cc2)nn1", "Label Value": "satisfied"}
{"Compound": "CCc1nc(N)nc(N)c1OCCCc1cn(-c2cccc(C(=O)O)c2)nn1", "Label Value": "satisfied"}
{"Compound": "CCc1nc(N)nc(N)c1OCc1cn(-c2ccc([N+](=O)[O-])cc2)nn1", "Label Value": "not satisfied"}

# bool: pKi of CCc1nc(N)nc(N)c1OCc1coc(-c2cccc(OCC(=O)OCc3ccccc3)c2)n1 >= 8
not satisfied

Another: CCc1nc(N)nc(N)c1OCc1cc(-c2cccc([N+](=O)[O-])c2)no1
not satisfied

###

Measured pIC50 by item
- Tested on: P. falciparum TM4/8.2 (wild type)
- Method Summary: microbe, parasite or virus in culture
- Assay type: cell-based, Plasmodium falciparum
- Test Parameters: Plasmodium falciparum; in vitro, wild-type strain TM4/8.2; read-out: IC50 P. falciparum TM4/8.2 (WT)
Please keep in mind that pIC50 is minus log10 of the molar concentration; only the number is needed.

Consider the reported pIC50 for these compounds:
{"Compound": "CCc1nc(N)nc(N)c1OCc1cn(-c2cccc(C(=O)OC)c2)nn1 [Compound 15]", "Measured Target": "P. falciparum TM4/8.2 (wild type)", "Test Value": 6.14}
{"Compound": "CCc1nc(N)nc(N)c1OCc1cn(-c2cccc([N+](=O)[O-])c2)nn1 [Compound 14]", "Measured Target": "P. falciparum TM4/8.2 (wild type)", "Test Value": 5.47}
{"Compound": "CCc1nc(N)nc(N)c1OCCc1cn(-c2ccc(C(=O)O)cc2)nn1 [Compound 22]", "Measured Target": "P. falciparum TM4/8.2 (wild type)", "Test Value": 6.21}
{"Compound": "CCc1nc(N)nc(N)c1OCc1cc(-c2cccc(C(F)(F)F)c2)no1 [Compound 37]", "Measured Target": "P. falciparum TM4/8.2 (wild type)", "Test Value": 5.49}

# query: pIC50 of entry CCc1nc(N)nc(N)c1OCc1csc(-c2ccc(C)cc2)n1 [Compound 67]
5.99

Another: CCc1nc(N)nc(N)c1OCc1cc(-c2ccc(C(F)(F)F)cc2)no1 [Compound 41]
5.17

Another: CCc1nc(N)nc(N)c1OCc1coc(-c2ccc(OCC(=O)O)cc2)n1 [Compound 57]
6.14

Another: CCc1nc(N)nc(N)c1OCc1cn(-c2ccccc2)nn1 [Compound 13]
5.24

###

Structures can show the parent of a compound that is named as a salt.
Measured melting point by item

Consider the reported melting point for these compounds:
{"Compound": "CCc1nc(N)nc(N)c1OCc1csc(-c2ccc(OC)cc2)n1 (as salt: hydrochloride)", "Metric Name": "melting point", "Test Value": "228 to 229 °C"}
{"Compound": "CCc1nc(N)nc(N)c1OCc1cn(-c2cccc([N+](=O)[O-])c2)nn1 (as salt: hydrochloride)", "Metric Name": "melting point", "Test Value": "236 to 237 °C"}
{"Compound": "CCc1nc(N)nc(N)c1OCCCc1cn(-c2cccc(C(=O)O)c2)nn1 (as salt: hydrochloride)", "Metric Name": "melting point", "Test Value": "230.5 to 231.5 °C"}
{"Compound": "CCc1nc(N)nc(N)c1-c1cn(Cc2ccc(C(=O)O)cc2)nn1 (as salt: hydrochloride)", "Metric Name": "melting point", "Test Value": "270 to 272 °C"}
{"Compound": "CCc1nc(N)nc(N)c1OCCCc1cn(-c2ccc(C(=O)O)cc2)nn1 (as salt: hydrochloride)", "Metric Name": "melting point", "Test Value": "239.5 to 241.5 °C"}

# query: melting point of entry CCc1nc(N)nc(N)c1OCCCc1cn(-c2ccc(C(=O)OC)cc2)nn1 (as salt: hydrochloride)
208 to 209.5 °C

Another: CCc1nc(N)nc(N)c1OCCCc1cc(-c2ccc(Cl)cc2)no1 (as salt: hydrochloride)
231.5 to 232.5 °C

###

Measured melting point by item
Counter-ions that a name gives are not always drawn.

Consider the reported melting point for these molecules:
{"Molecule": "CCc1nc(N)nc(N)c1OCc1cc(-c2cccc(OC)c2)no1 (as salt: hydrochloride) [Compound 38]", "melting point": "211.5 to 212.5 °C"}
{"Molecule": "CCc1nc(N)nc(N)c1OCCc1cn(-c2ccc(C(=O)O)cc2)nn1 (as salt: hydrochloride) [Compound 22]", "melting point": "270 to 271 °C"}
{"Molecule": "CCc1nc(N)nc(N)c1OCCCc1cc(-c2cccc(C#N)c2)no1 (as salt: hydrochloride) [Compound 47]", "melting point": "252 to 253 °C"}
{"Molecule": "CCc1nc(N)nc(N)c1OCc1coc(-c2cccc(C)c2)n1 (as salt: hydrochloride) [Compound 51]", "melting point": "225 to 226 °C"}
{"Molecule": "CCc1nc(N)nc(N)c1OCc1cn(-c2cccc(C(=O)OC)c2)nn1 (as salt: hydrochloride) [Compound 15]", "melting point": "211 to 212 °C"}
{"Molecule": "CCc1nc(N)nc(N)c1OCc1cc(-c2ccc(OC)cc2)no1 (as salt: hydrochloride) [Compound 42]", "melting point": "214 to 216 °C"}

Okay, now this molecule:
# query: melting point of entry CCc1nc(N)nc(N)c1-c1cn(-c2cccc(C(=O)O)c2)nn1.Cl [Compound 2]
205 to 207 °C

###

- Method Summary: in vitro
- Test Parameters: African green monkey
Metric Name: IC50

{"Molecule": "CCc1nc(N)nc(N)c1OCc1coc(-c2ccccc2)n1", "Test Value": "> 50 µM"}

# query: IC50 of entry CCc1nc(N)nc(N)c1OCc1csc(-c2ccc(C(=O)O)cc2)n1
> 50 µM

Another: CCc1nc(N)nc(N)c1-c1ccc(Cl)cc1 [Pyrimethamine, pyrimethamine, reference compound]
> 10 µM

Another: CCc1nc(N)nc(N)c1OCc1cc(-c2ccc(Br)cc2)no1
> 25 µM

Another: CCc1nc(N)nc(N)c1OCc1coc(-c2ccc(Cl)cc2)n1
> 25 µM

Another: CCc1nc(N)nc(N)c1OCc1cc(-c2cccc(C(=O)O)c2)no1
> 50 µM

Another: CCc1nc(N)nc(N)c1OCc1csc(-c2cccc(C(=O)O)c2)n1.Cl [Compound 66, Hydrochloride]
> 10 µM

Another: CCc1nc(N)nc(N)c1-c1cn(CCCc2ccccc2)nn1
> 50 µM

Another: CCc1nc(N)nc(N)c1OCCc1coc(-c2ccccc2)n1
5.59 µM

Another: CCc1nc(N)nc(N)c1OCc1cc(-c2ccc(C(=O)O)cc2)no1
> 10 µM

Another: CCc1nc(N)nc(N)c1OCc1cn(Cc2cc(F)c(O)c(F)c2)nn1
> 50 µM

Another: CCc1nc(N)nc(N)c1OCc1csc(-c2cccc(OCC(=O)O)c2)n1
> 50 µM

Another: CCc1nc(N)nc(N)c1OCc1cn(-c2ccc([N+](=O)[O-])cc2)nn1
> 50 µM

###

- Measured Target: Human dihydrofolate reductase (hDHFR) (Homo sapiens, UniProt P00374)
- Sequence (P00374 1-187): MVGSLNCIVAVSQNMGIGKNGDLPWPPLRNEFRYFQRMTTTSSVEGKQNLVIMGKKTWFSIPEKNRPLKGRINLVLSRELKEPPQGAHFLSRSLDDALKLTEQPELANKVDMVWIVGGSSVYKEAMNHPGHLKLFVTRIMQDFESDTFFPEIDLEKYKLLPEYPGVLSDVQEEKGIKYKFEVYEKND
pKi: −log10 of the molar value.
Label T for high-side pKi (at or above 7) and F for low-side pKi (below it).

A selection of reference data follows.
{"Mol Smiles": "CCc1nc(N)nc(N)c1OCCCc1cc(-c2cccc(C(F)(F)F)c2)no1", "Label Value": "T"}
{"Mol Smiles": "CCc1nc(N)nc(N)c1-c1cn(CCOc2ccc(Cl)cc2)nn1", "Label Value": "F"}
{"Mol Smiles": "CCc1nc(N)nc(N)c1OCc1coc(-c2ccc(OCC(=O)OCc3ccccc3)cc2)n1", "Label Value": "F"}
{"Mol Smiles": "CCc1nc(N)nc(N)c1OCCCc1cc(-c2cccc(C#N)c2)no1", "Label Value": "T"}
{"Mol Smiles": "CCc1nc(N)nc(N)c1OCc1csc(-c2ccc(Br)cc2)n1", "Label Value": "F"}

# bool: pKi of CCc1nc(N)nc(N)c1-c1cn(CCCOc2ccc(Cl)cc2)nn1 >= 7
F

Another: CCc1nc(N)nc(N)c1OCc1coc(-c2ccc(OCC(=O)O)cc2)n1
F

Another: CCc1nc(N)nc(N)c1OCCCc1cn(Cc2ccc(C(=O)O)cc2)nn1
T

Another: CCc1nc(N)nc(N)c1OCc1csc(-c2ccc(Cl)cc2)n1
F
